- Test system: Nrf2 transcriptional activity (ARE promoter)
- assay-text: ARE luciferase reporter assay in HNDFs
- Type: cell-based, human
- assay-conditions: inhibitor pre-incubation 2 h, then ANM 6 h in the presence of HG
observable: ANM-induced ARE luciferase activity after inhibitor pretreatment

COc1cccc(-c2cc(=O)c3ccccc3o2)c1N [PD98059, reference compound] ... effectively suppressed
O=c1cc(N2CCOCC2)oc2c(-c3ccccc3)cccc12 [LY294002, reference compound] ... effectively suppressed

---

- Tested on: HNDFs
- assay-text: Cytotoxicity of antcins against HNDFs (MTT assay)
- Assay type: cell-based, human
- assay-conditions: Homo sapiens, 72 h, read-out: IC50 (50% inhibitory concentration) against HNDFs
observable: IC50

C=C(CCC(C)C1CCC2C3=C(C(=O)C(O)C21C)C1(C)CCC(O)C(C)C1CC3)C(C)C(=O)O (stereo not shown) [ANM, antcin M] ... > 50 µM

Reference for the values: paper PMC5325331
